System: SF-295 CNS
Experiment: NCI tumour cell line growth inhibition, 48 h; in the data active means GI50 below about 0.43 µM; inactive means the rest
Log the outcome using a class from active, inactive

Here are 5 compounds together with their reported answers.
Assay outcome for NC(N)=Nc1ccc(/C=C2\C=Cc3ccccc32)cc1 : what was it? inactive

What classification did CC[PH+](CC)CC.CC[PH+](CC)CC.[Au] end up with in this test? inactive

Outcome logged for CN(C)C=Nc1c(I)cc(I)c(CCC(=O)O)c1I in this assay: inactive

Which result was noted for this compound in the test: CNC(=O)c1cccc(C#Cc2cncnc2Nc2ccc(OCc3cccc(F)c3)c(Cl)c2)c1 inactive

Returns: the outcome recorded for COc1cc(CCNC(=O)OC(C)(C)C)c2c(c1OC)SSSSS2 in this assay. inactive

Further cases:
Field: outcome | Entry: Cn1cc(C2=C(c3cn(CCCCCO)c4ccccc34)C(=O)NC2=O)c2ccccc21 inactive

State the result this test recorded for Cc1ccc(OCCOCCOCCOCCOCCOc2ccc(C)n(O)c2=S)c(=S)n1O . active

# fetch the recorded call for COc1cc2c(c(OC)c1OC)-c1c(c3ccc([N+](=O)[O-])cc3c(=O)n1CCCN)C2=O here inactive

###

Test system: SK-MEL-2 melanoma
Experiment: NCI tumour cell line growth inhibition, 48 h
Listing of entries alongside the reported TGI.
Reply with just the number (in µM).

Request the reported TGI associated with CCOC(=O)C12CC(C)=C(C)CC1CCCc1ccccc12 (centres undefined) 31.6

Need TGI, item CN(/N=C\c1ccnc2ccccc12)c1ccccc1 38.5

Which value of TGI has been reported for O=S(=O)(NCCCNc1cc(-c2cn(-c3ccccc3)nc2-c2cccc(O)c2)ccn1)c1ccc(Br)cc1 in the records? 3.84

Which TGI reading was recorded for the compound Cc1cc(=O)n2c3c(c4c(cc13)c(CN(C)C)cc(=O)n4C)OC2 ? 41.6

Entry CC(C)(C)[Si](C)(C)OCC1OC(n2ccc(=O)[nH]c2=O)C(O[Si](C)(C)C(C)(C)C)[C@]12O[C@@H]2CO (some centres undefined) : reported TGI = ? 28.6

What TGI value was documented for this compound, CC[PH+](CC)CC.CC[PH+](CC)CC.[Au] ? 15.8

More entries:
May I ask what TGI has been recorded for C[N+]12C=CC=C1C(N1CCCC1)c1scc(-c3ccc(F)cc3)c12 (centres undefined) ? 49

Given COc1ccc(N=Cc2ccc(N(CCC#N)S(=O)(=O)c3ccccc3)cc2C)cc1 , state its recorded TGI. 67.8

###

Tested on: DMS 273 small cell lung
Assay: NCI tumour cell line growth inhibition, 48 h
recorded metric: TGI (µM)
Write down the numeric answer in µM and omit the unit.

Example results:
Please look up its TGI: CCCCCCCCCCOC(=O)NCCC 54.9

Quick one: TGI for COc1cc(C2C(=O)C(Cl)N2Nc2nc(C)cc(=O)[nH]2)cc(OC)c1OC (stereo unspecified) ? 24.2

Entry Cc1ccc(C(=O)NCCN(C)C)c2nc3ccccc3cc12 : reported TGI = ? 2

***
Data request, read-out TGI, for O=C(CSSCC(=O)Nc1ccc(Br)cc1)Nc1ccc(Br)cc1 30.8

###

Tested on: NCI-H522 lung
Test: NCI tumour cell line growth inhibition, 48 h
recorded metric: GI50

For the molecule shown here, Cn1c(=O)c(Oc2ccc(F)cc2F)cc2cnc(NC3CCOCC3)nc21 , give the reported GI50. > 25 µM

I am curious: what GI50 value has been reported for O=C1CC(N2C(=O)/C(=C/C(Cl)=C\c3ccc([N+](=O)[O-])cc3)SC2=S)C(=O)N1c1ccc(O)cc1 (stereo not given) ? 1.86 µM

Name the reported GI50 value associated with the molecule Cc1c2c(nn1-c1ccc(S(=O)(=O)NC(=S)NC(=O)c3ccccc3)cc1)-c1ccccc1CC2 50.4 µM

// returns reported GI50 for input COC(=O)CNc1nc(N(C)O)nc(N(C)O)n1 3.73 µM

GI50 for O=C(c1ccccc1)c1nc2ccc(C(F)(F)F)cc2nc1N1CCN(c2ccccc2)CC1 ? 34.6 µM

###

System: OVCAR-3 ovarian
Assay: NCI tumour cell line growth inhibition, 48 h
The following molecules are shown together with reported TGI values.
Answer in µM, number only, no unit symbol.

Please state recorded TGI (tested on OVCAR-3 ovarian) of CCN(CC)Cc1cc(Nc2ccnc3ccc4nn(C)nc4c23)ccc1O 68

Checklist item: TGI tested on OVCAR-3 ovarian, entry COc1cc2nc3cc([N+](=O)[O-])ccc3c(NCCNCC(C)O)c2cc1OC (configuration not stated) , value? 1.74

What reported TGI corresponds to CN(C)CCNC(=O)c1ccc2oc3cc4ccccc4c(=O)n3c2c1 on OVCAR-3 ovarian? 52.6

More entries:
Checklist item: TGI tested on OVCAR-3 ovarian, entry Cc1cc(=O)n2c3c(c4c(cc13)c(CN(C)C)cc(=O)n4C)OC2 , value? 80.1

Param readout= TGI; system= OVCAR-3 ovarian; entry= Cc1ccc(C(=O)NCCN(C)C)c2nc3ccccc3cc12 ; returns value. 6.79

So what TGI did CC/C=C\C[C@H](O)C/C=C1/C(=O)C=C[C@@H]1C/C=C\CCCCO get with OVCAR-3 ovarian? 12.9

# returns recorded TGI (system: OVCAR-3 ovarian) for CN1CCN(CCCN2c3ccccc3Sc3ccc(Cl)cc32)CC1 12.8

Quick check: TGI on OVCAR-3 ovarian, item O=C(CSSCC(=O)Nc1ccc(Br)cc1)Nc1ccc(Br)cc1 ? 32.1

For OVCAR-3 ovarian, provide TGI of CC(C)C(=O)c1c(C(F)(F)F)n([O-])c2ccccc2[n+]1=O please. 1.24

Recorded TGI for COc1cc(CNc2c3ccccc3nc3ccccc23)cc(OC)c1OC with OVCAR-3 ovarian, please? 30.2

For OVCAR-3 ovarian, provide TGI of COc1cc(C2C(=O)C(Cl)N2Nc2nc(C)cc(=O)[nH]2)cc(OC)c1OC (configuration not stated) please. 45.1

###

Recorded TGI values for a group of compounds are listed next.
Tested on: SN12C renal
Assay: NCI tumour cell line growth inhibition, 48 h

Take a look at these entries with their results.
# query: TGI of entry Cc1cc2c(cc1Cl)SC(NNC1=NCCN1)=NS2(=O)=O > 10 µM

Given CC(=O)OCC1OC(n2ncc(=O)[nH]c2=O)C(OC(C)=O)C1OC(C)=O (stereo not given) , state its recorded TGI. > 100 µM

Any idea what its TGI is? The compound is O=C(O)c1ccc([C@@H]2C(=O)N(O)[C@@H]3C=CC[C@@H]32)cc1 > 100 µM

Returns the measured TGI for the input compound. Input: Cn1c(=O)c(Oc2ccc(F)cc2F)cc2cnc(NC3CCOCC3)nc21 > 25 µM

Further cases:
What TGI value was documented for this compound, CCC12C=CCN3CCC4(c5cc(C(c6ccc(OC)cc6)C6Cc7ccccc7N6)c(OC)cc5N(C)C4C(O)(C(=O)OC)C1O)C32 (stereo not given) ? > 100 µM

###

System: MDA-MB-231 breast
Assay: NCI tumour cell line growth inhibition, 48 h
recorded metric: TGI

Example entries and their recorded answers appear below.
// lookup TGI for Cc1sc2c(c1C)C(c1ccc(Cl)cc1)=N[C@@H](CC(=O)NCCCN1CCN(C)CC1)c1nnc(C)n1-2 > 100 µM

For the compound COc1cc(/C=C/C(=O)c2c(-c3ccc(F)cc3)nc3sc(C)nn23)cc(OC)c1OC , what TGI is on record? 8.51 µM

Sample CNC(=O)c1cccc(C#Cc2cncnc2Nc2ccc(OCc3cccc(F)c3)c(Cl)c2)c1 — what was its TGI? > 19.5 µM

---
# input compound: COc1ccc2c(c1)C(c1cc(OC)c3c(c1)OCO3)C1=C(COC1=O)N2 (stereo not given) ; wanted: its TGI > 39.8 µM

Record request: TGI value, item O=C(Nc1cccc(C(=O)NCCCO)c1)/C(=C/c1ccccc1)NC(=O)c1ccccc1 > 100 µM

###

Tested on: SK-OV-3 ovarian
Test: NCI tumour cell line growth inhibition, 48 h; in the data active = GI50 below about 0.43 µM; inactive = the rest
Could you please pick one outcome from this set? 1 for active, 0 for inactive

For orientation, consider the following solved cases.
Call for entry Cn1c(-c2c(N)n(Cc3ccc(F)cc3)c3nc(C#N)c(C#N)nc23)nc2ccccc21 : 0

Called result for [Cu+2].[NH-]C(CC(=O)O)C(=O)O.[NH-]C(CC(=O)O)C(=O)O (stereo not drawn) 0

Identify the outcome logged in this assay for the molecule shown: CC(C)Cc1ccc(C(C)C(=O)NCc2ccc(Cn3c(=O)sn(CCCI)c3=O)cc2)cc1 (stereo not drawn) 0

Test call, this molecule: O=C1NC(=NCCc2ccccn2)S/C1=C\c1ccc2ncccc2c1 0

Status in this test for Nc1ncn([C@H]2C[C@H](OP(=O)(O)OC[C@H]3O[C@@H](n4cnc5c(=O)[nH]c(N)nc54)C[C@@H]3O)[C@@H](CO)O2)c(=O)n1 ? 0

Which outcome was entered for the molecule CCCCCCCCCCCCCCCCN(CC)CC in this test? 0

Name the outcome recorded for COc1cc(/C=C/C(=O)c2c(-c3ccc(F)cc3)nc3sc(C)nn23)cc(OC)c1OC in the assay. 0

Call for entry O=C(c1ccccc1)c1nc2ccc(C(F)(F)F)cc2nc1N1CCN(c2ccccc2)CC1 : 0

New cases:
Fill in: this test's call for COc1ccc2nc3cccc([N+](=O)[O-])c3c(NC(C)CN(C)C)c2c1 (stereo not drawn) is ___ 0

Hi team, can someone confirm the assay call for CCOC(=O)c1cc(NS(=O)(=O)c2ccc(C)cc2)cc(C(=O)OCC)c1 ? 0

// data source = PubChem BioAssay (NCI)
